# Tested on: DU145 human androgen-insensitive prostate cancer cell line
# method: WST-1 cell proliferation assay, DU145
# Type: cell-based
# condition: Homo sapiens, DU-145, 72 h, read-out: IC50 (μM) DU145
outcomeMeasure: IC50

Ask: Return reported IC50; argument: `COc1cc(/C=C/C(=O)CC(=O)/C=C/c2ccc(O)c(OC)c2)ccc1O`
Result: 26.2 µM

----------
# Tested on: PWR-1E non-neoplastic human prostate epithelial cells
# method: WST-1 cell proliferation assay, PWR-1E
# Assay type: cell-based
# condition: Homo sapiens, PWR-1E, 72 h, read-out: IC50 (μM) PWR-1E
outcomeMeasure: IC50

Ask: Bench note: what IC50 did COc1cc(/C=C/C(=O)CC(=O)/C=C/c2ccc(O)c(OC)c2)ccc1O [Curcumin] show?
Result: 8.14 to 9.54 µM
